What % inhibition of migration, recombinant cCCL21, H9 cells, IgG at 2uM (3rd cell) was measured for each of the following?
- MEASURED ON: T1, cynomolgus monkey CCL21 (cynomolgus monkey, UniProt Q8HYP5 24-131 (rhesus entry))
- T1 sequence: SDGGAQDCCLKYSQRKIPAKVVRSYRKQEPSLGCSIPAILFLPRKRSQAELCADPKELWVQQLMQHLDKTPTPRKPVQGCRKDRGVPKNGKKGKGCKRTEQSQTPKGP
- EXPERIMENT NOTES: cell-based or functional assay
One number for each entry, in %.

Reference set (2 entries):
>>> measured_result("MOR08389_g3-23_g3j (antibody, human IgG1, lambda, V domains shown) VH: EVQLLESGGGLVQPGGSLRLSCAASGFTFNSYSMSWVRQAPGKGLEWVSAISMEGYSKSYADSVKGRFTISRDNSKNTLYLQMNSLRAEDTAVYYCARGYGYYFDVWGQGTLVTVSS VL: SYELTQPLSVSVALGQTARITCGGDSIGSQYASWYQQKPGQAPVLVIYDDNERPSGIPERFSGSNSGNTATLTISRAQAGDEADYYCSSWDMDAVNVFGGGTKLTVLG")
100
>>> measured_result("MOR06935_g3-23_g3j (antibody, V domains shown, also called QBP359; FW repaired germlined MOR06935) VH: EVQLLESGGGLVQPGGSLRLSCAASGFTFNSYSMSWVRQAPGKGLEWVSAISMEGYSKSYADSVKGRFTISRDNSKNTLYLQMNSLRAEDTAVYYCARGYGYYFDVWGQGTLVTVSS VL: SYELTQPLSVSVALGQTARITCGGDSIGSQYASWYQQKPGQAPVLVIYDDNERPSGIPERFSGSNSGNTATLTISRAQAGDEADYYCGSWDSNPTHVFGGGTKLTVLG")
100

Now, please, on to the next binder.
The binder identified as MOR08382_g3-23_gL6 (antibody, human IgG1, kappa, V domains shown) VH: EVQLLESGGGLVQPGGSLRLSCAASGFTFSSYWLNWVRQAPGKGLEWVSYISNQGDDTSYADSVKGRFTISRDNSKNTLYLQMNSLRAEDTAVYYCARDYQYIGDSFDIWGQGTLVTVSS VL: EIVLTQSPATLSLSPGERATLSCRASQYVSYVSLAWYQQKPGQAPRLLIYDASNRATGIPARFSGSGSGTDFTLTISSLEPEDFAVYYCQQYDDLSYTFGQGTKVEIKR registered its % inhibition of migration, recombinant cCCL21, H9 cells, IgG at 2uM (3rd cell) at 100

Just for reference, patent WO2011080050A2 is where these values come from.
